# Test system: UMC-11
# assayDetails: relative viability (nuclei count vs DMSO), 5 days (fraction); higher = more cells survive
# conditionsUsed: first compound 0.08 µM
experimentalReadout: relative viability
Field format: numeric only.

compound	relative viability
C=C1C(=O)O[C@@H](CCCCCCCC)[C@@H]1C(=O)O [C-75] + CC(=O)Nc1cccc(-n2c(=O)n(C3CC3)c(=O)c3c(Nc4ccc(I)cc4F)n(C)c(=O)c(C)c32)c1 [Trametinib] (partner 0.02 µM)	0.723

Input: Name the recorded relative viability for C=C1C(=O)O[C@@H](CCCCCCCC)[C@@H]1C(=O)O [C-75] + COc1cc2c(Oc3ccc(NC(=O)C4(C(=O)Nc5ccc(F)cc5)CC4)cc3F)ccnc2cc1OCCCN1CCOCC1 [Foretinib] (partner 0.25 µM) .
Output: 0.99

###

In this section we review reported relative viability values for a set of compounds.
# System: HARA
# assayDetails: relative viability (nuclei count vs DMSO), 5 days (fraction); higher = more cells survive
# conditionsUsed: first compound 1.265 µM

Examples from the recorded data:
compound	relative viability
O=C(O)c1ccc(-c2c[nH]c3ncc(-c4ccccc4)cc23)cc1C1CCCC1 + C[C@]1(O)C[C@@H](c2nc(-c3ccc4ccc(-c5ccccc5)nc4c3)c3c(N)nccn32)C1 [Linsitinib] (partner 1 µM)	0.748
O=C(O)c1ccc(-c2c[nH]c3ncc(-c4ccccc4)cc23)cc1C1CCCC1 + C[C@@H](Oc1cc(-c2cnn(C3CCNCC3)c2)cnc1N)c1c(Cl)ccc(F)c1Cl [Crizotinib] (partner 1 µM)	0.763
O=C(O)c1ccc(-c2c[nH]c3ncc(-c4ccccc4)cc23)cc1C1CCCC1 + Cc1cc(Nc2cc(N3CCN(C)CC3)nc(Sc3ccc(NC(=O)C4CC4)cc3)n2)n[nH]1 [Tozasertib] (partner 0.1 µM)	0.0904

Input: Value lookup for relative viability; key = O=C(O)c1ccc(-c2c[nH]c3ncc(-c4ccccc4)cc23)cc1C1CCCC1 + NC(=O)Nc1cc(-c2cccc(F)c2)sc1C(=O)N[C@H]1CCCNC1 [AZD7762] (partner 0.2 µM)
Output: 0.554

Input: Cool, now O=C(O)c1ccc(-c2c[nH]c3ncc(-c4ccccc4)cc23)cc1C1CCCC1 + CS(=O)(=O)N1CCN(Cc2cc3nc(-c4cccc5[nH]ncc45)nc(N4CCOCC4)c3s2)CC1 [Pictilisib] (partner 1 µM)
Output: 0.545

Input: Likewise for O=C(O)c1ccc(-c2c[nH]c3ncc(-c4ccccc4)cc23)cc1C1CCCC1 + CC(=O)c1c(C)c2cnc(Nc3ccc(N4CCNCC4)cn3)nc2n(C2CCCC2)c1=O [Palbociclib] (partner 0.5 µM) ?
Output: 0.216

Input: Okay, and O=C(O)c1ccc(-c2c[nH]c3ncc(-c4ccccc4)cc23)cc1C1CCCC1 + O=C(c1cc(Cc2n[nH]c(=O)c3ccccc23)ccc1F)N1CCN(C(=O)C2CC2)CC1 [Olaparib] (partner 8 µM) ?
Output: 0.329

###

# relative viability values compiled below
# System: COR-L 105
# assayDetails: relative viability (nuclei count vs DMSO), 5 days (fraction); higher = more cells survive
# conditionsUsed: first compound 0.03162 µM
Reply briefly: the number, and no unit.

compound	relative viability
NC(=O)Nc1cc(-c2cccc(F)c2)sc1C(=O)N[C@H]1CCCNC1 [AZD7762] + Cc1nc(Nc2ncc(C(=O)Nc3c(C)cccc3Cl)s2)cc(N2CCN(CCO)CC2)n1 [Dasatinib] (partner 0.075 µM)	0.342
NC(=O)Nc1cc(-c2cccc(F)c2)sc1C(=O)N[C@H]1CCCNC1 [AZD7762] + CCNC(=O)c1noc(-c2cc(C(C)C)c(O)cc2O)c1-c1ccc(CN2CCOCC2)cc1 [Luminespib] (partner 0.01 µM)	0.585
NC(=O)Nc1cc(-c2cccc(F)c2)sc1C(=O)N[C@H]1CCCNC1 [AZD7762] + CC1(C)CCC(c2ccc(Cl)cc2)=C(CN2CCN(c3ccc(C(=O)NS(=O)(=O)c4ccc(N[C@H](CCN5CCOCC5)CSc5ccccc5)c(S(=O)(=O)C(F)(F)F)c4)cc3)CC2)C1 [Navitoclax] (partner 0.5 µM)	0.768
NC(=O)Nc1cc(-c2cccc(F)c2)sc1C(=O)N[C@H]1CCCNC1 [AZD7762] + N=C(N)NC(=N)NCCc1ccccc1 [Phenformin] (partner 250 µM)	0.491
NC(=O)Nc1cc(-c2cccc(F)c2)sc1C(=O)N[C@H]1CCCNC1 [AZD7762] + C[C@@H](Oc1cc(-c2cnn(C3CCNCC3)c2)cnc1N)c1c(Cl)ccc(F)c1Cl [Crizotinib] (partner 1 µM)	0.772

Alright, here's another compound for you.
Input: For NC(=O)Nc1cc(-c2cccc(F)c2)sc1C(=O)N[C@H]1CCCNC1 [AZD7762] + CC(C)C[C@H](NC(=O)[C@H](Cc1ccccc1)NC(=O)c1cnccn1)B(O)O [Bortezomib] (partner 0.002 µM) , what is its reported relative viability?
Output: 0.803

###

relative viability overview
# System: LK-2
# assayDetails: relative viability (nuclei count vs DMSO), 5 days (fraction); higher = more cells survive
# conditionsUsed: first compound 1 µM
Answer with a number only.

// below: answered compounds
compound	recordedResult
NC(=O)Nc1cc(-c2cccc(F)c2)sc1C(=O)N[C@H]1CCCNC1 [AZD7762] + Nc1ncn([C@H]2C[C@H](O)[C@@H](CO)O2)c(=O)n1 [Decitabine] (partner 2 µM)	0.25
NC(=O)Nc1cc(-c2cccc(F)c2)sc1C(=O)N[C@H]1CCCNC1 [AZD7762] + C[C@@H](Oc1cc(-c2cnn(C3CCNCC3)c2)cnc1N)c1c(Cl)ccc(F)c1Cl [Crizotinib] (partner 1 µM)	0.228

We now examine a further compound.
Input: Which relative viability is reported for this compound? NC(=O)Nc1cc(-c2cccc(F)c2)sc1C(=O)N[C@H]1CCCNC1 [AZD7762] + CS(=O)(=O)CCNCc1ccc(-c2ccc3ncnc(Nc4ccc(OCc5cccc(F)c5)c(Cl)c4)c3c2)o1 [Lapatinib] (partner 2 µM)
Output: 0.573

###

# System: LCLC-97TM1
# assayDetails: relative viability (nuclei count vs DMSO), 5 days (fraction); higher = more cells survive
# conditionsUsed: first compound 0.1581 µM
Quick reference: relative viability of the listed items.
Respond using a number only.

compound	recordedResult
CC1(C)CCC(c2ccc(Cl)cc2)=C(CN2CCN(c3ccc(C(=O)NS(=O)(=O)c4ccc(N[C@H](CCN5CCOCC5)CSc5ccccc5)c(S(=O)(=O)C(F)(F)F)c4)cc3)CC2)C1 [Navitoclax] + CC(C)C[C@H](NC(=O)[C@H](Cc1ccccc1)NC(=O)c1cnccn1)B(O)O [Bortezomib] (partner 0.002 µM)	0.6
CC1(C)CCC(c2ccc(Cl)cc2)=C(CN2CCN(c3ccc(C(=O)NS(=O)(=O)c4ccc(N[C@H](CCN5CCOCC5)CSc5ccccc5)c(S(=O)(=O)C(F)(F)F)c4)cc3)CC2)C1 [Navitoclax] + CS(=O)(=O)CCNCc1ccc(-c2ccc3ncnc(Nc4ccc(OCc5cccc(F)c5)c(Cl)c4)c3c2)o1 [Lapatinib] (partner 2 µM)	0.856

Input: For CC1(C)CCC(c2ccc(Cl)cc2)=C(CN2CCN(c3ccc(C(=O)NS(=O)(=O)c4ccc(N[C@H](CCN5CCOCC5)CSc5ccccc5)c(S(=O)(=O)C(F)(F)F)c4)cc3)CC2)C1 [Navitoclax] + COc1cccc2cc(-c3nc([C@H]4CC[C@H](C(=O)O)CC4)n4ncnc(N)c34)[nH]c12 [OSI-027] (partner 0.5 µM) , what is its reported relative viability?
Output: 0.482

###

# Test system: COR-L23
# assayDetails: relative viability (nuclei count vs DMSO), 5 days (fraction); higher = more cells survive
# conditionsUsed: first compound 0.005 µM
Just a reminder that ties go to NO: only relative viability strictly below 0.9 counts as YES.

Please review the following examples before continuing.
compound	testedTarget	labelClass
CC1(C)CCC(c2ccc(Cl)cc2)=C(CN2CCN(c3ccc(C(=O)NS(=O)(=O)c4ccc(N[C@H](CCN5CCOCC5)CSc5ccccc5)c(S(=O)(=O)C(F)(F)F)c4)cc3)CC2)C1 [Navitoclax] + CC(=O)c1c(C)c2cnc(Nc3ccc(N4CCNCC4)cn3)nc2n(C2CCCC2)c1=O [Palbociclib] (partner 0.5 µM)	COR-L23	YES
CC1(C)CCC(c2ccc(Cl)cc2)=C(CN2CCN(c3ccc(C(=O)NS(=O)(=O)c4ccc(N[C@H](CCN5CCOCC5)CSc5ccccc5)c(S(=O)(=O)C(F)(F)F)c4)cc3)CC2)C1 [Navitoclax] + N=C(N)NC(=N)NCCc1ccccc1 [Phenformin] (partner 250 µM)	COR-L23	YES
CC1(C)CCC(c2ccc(Cl)cc2)=C(CN2CCN(c3ccc(C(=O)NS(=O)(=O)c4ccc(N[C@H](CCN5CCOCC5)CSc5ccccc5)c(S(=O)(=O)C(F)(F)F)c4)cc3)CC2)C1 [Navitoclax] + COc1cc2c(Oc3ccc(NC(=O)C4(C(=O)Nc5ccc(F)cc5)CC4)cc3F)ccnc2cc1OCCCN1CCOCC1 [Foretinib] (partner 0.25 µM)	COR-L23	NO

Input: Dear reviewer, please state whether CC1(C)CCC(c2ccc(Cl)cc2)=C(CN2CCN(c3ccc(C(=O)NS(=O)(=O)c4ccc(N[C@H](CCN5CCOCC5)CSc5ccccc5)c(S(=O)(=O)C(F)(F)F)c4)cc3)CC2)C1 [Navitoclax] + CC(C)C[C@H](NC(=O)[C@H](Cc1ccccc1)NC(=O)c1cnccn1)B(O)O [Bortezomib] (partner 0.002 µM) has relative viability strictly beneath 0.9.
Output: NO
